Experimental System: rat GABA A receptor α3β3γ2 (Rattus norvegicus, UniProt P18508+P20236)
Construct: expressed in transfected cells; host or cells: SF9 insect cells
Procedure Details: [3H]flumazenil competition binding, GABA A α3β3γ2
Measurement Setup: [3H]flumazenil 1 nM, SF9 cells expressing rat α3β3γ2, mean of two determinations; read-out: Ki[nM] ra3
Recorded Endpoint: Ki (nM)
// units = nM; emit number, no label

Report Ki for `CCOC(=O)c1ncn2c1Cn1c(Cc3cccc(OC)c3)nnc1-c1cc(Br)ccc1-2` tested on rat GABA A receptor α3β3γ2 (Rattus norvegicus, UniProt P18508+P20236).
220

Item: `CCOC(=O)c1ncn2c1Cn1c(Cc3c[nH]c4c(OC)cccc34)nnc1-c1cc(OC)ccc1-2`
162

What do we get for `CCOC(=O)c1ncn2c1Cn1c(Cc3ccc(-c4ccccc4)cc3)nnc1-c1cc(OC)ccc1-2` ?
108

Could you do the same for `CCOC(=O)c1ncn2c1Cn1c(Cc3ccncc3)nnc1-c1cc(Cl)ccc1-2` , please?
158

Now the molecule `Cc1ccc2c(c1)-c1nncn1Cc1c(-c3nc(C4CC4)no3)ncn1-2`
149

Do the same for `CCOC(=O)c1ncn2c1Cn1c(CO)nnc1-c1cc(OC)ccc1-2` please
107

// query: `CCOC(=O)c1ncn2c1Cn1c(Cc3c[nH]c4ccccc34)nnc1-c1cc(Br)ccc1-2`
100

====

Consider the following compounds; for each one, report its Ki.
Experimental System: rat GABA A receptor α5β3γ2 (Rattus norvegicus, UniProt P18508+P19969)
Construct: expressed in transfected cells; host or cells: SF9 insect cells
Procedure Details: [3H]flumazenil competition binding, GABA A α5β3γ2
Description: The affinity of compounds at GABA A receptor subtypes was measured by competition for [^3H]flumazenil (85 Ci/mmol; Amersham) binding to SF9 cells expressing rat receptors of composition α1β3γ2, α2β3γ2, α3β3γ2 and α5β3γ2. […] 10^−10−3×10^−6 M. Nonspecific binding was defined by 10^−5 M diazepam and typically represented less than 5% of the total binding. […] After drying, filter-retained radioactivity was detected by liquid scintillation counting. […]
# unit: nM | format: bare number

Report Ki for `CCOC(=O)c1ncn2c1Cn1c(Cc3ccc(-c4ccccc4)cc3)nnc1-c1cc(OC)ccc1-2` please.
12.9

Moving on to the next compound: `CCOC(=O)c1ncn2c1Cn1c(Cc3cccc(OC)c3)nnc1-c1cc(Br)ccc1-2`
14.4

Please do the same for `CCOC(=O)c1ncn2c1Cn1c(Cc3c[nH]c4ccccc34)nnc1-c1cc(Br)ccc1-2` as well.
13.1

Entry to check: `CCOC(=O)c1ncn2c1Cn1c(CO)nnc1-c1cc(OC)ccc1-2`
5.9

Param item: `CCOC(=O)c1ncn2c1Cn1c(Cc3ccncc3)nnc1-c1cc(Cl)ccc1-2`
7

Now consider `Cc1ccc2c(c1)-c1nncn1Cc1c(-c3nc(C4CC4)no3)ncn1-2` and answer again.
10.8

====

Counter-ions that a name gives are not always drawn.
Give melting point for every item shown.
All answers are understood in °C, so give the number only.

Tell me the measured melting point of CCOC(=O)c1ncn2c1Cn1c(C)nnc1-c1cc(OC)ccc1-2 [Example 19] , please.
210

// same read-out, input: CCOC(=O)c1ncn2c1Cn1c(CO)nnc1-c1cc(OC)ccc1-2 [Example 25]
255

How about CCOC(=O)c1ncn2c1Cn1c(Cc3ccncc3)nnc1-c1cc(Cl)ccc1-2 (as salt: hydrochloride) [Example 69] ?
213

Follow-up item: CCOC(=O)c1ncn2c1Cn1cnnc1-c1cc(OC)ccc1-2 [Example 1]
197
